zone of inhibition at 75 µg/mL overview
# Tested on: Escherichia coli
# experiment_notes: Antibacterial activity against Escherichia coli assessed as zone of inhibition at 75 ug/ml incubated for 18-24 hrs at 37 degC by disc diffusion method
# Format: functional
# details: read-out: IZ
endpoint: zone of inhibition at 75 µg/mL

• O=C(O)c1cn(C2CC2)c2cc(N3CCNCC3)c(F)cc2c1=O [CIPROFLOXACIN] = 32 mm
• O=C(c1ccncc1)N(/N=C/c1c[nH]nc1-c1ccc(Cl)cc1)C(=O)c1ccc(Cl)cc1 = 24 mm
• COc1ccc(C(=O)N(/N=C/c2c[nH]nc2-c2ccc(Cl)cc2)C(=O)c2ccncc2)cc1OC = 9 mm
• O=C(c1ccncc1)N(/N=C/c1c[nH]nc1-c1ccc(Cl)cc1)C(=O)c1ccc([N+](=O)[O-])cc1 = 20 mm
